Data provenance is patent US20150315218A1.

Test Summary: IV and PO pharmacokinetic studies of prodrug salts (Iab, Ibb, Icb) in the monkey, with historical parent data
Type: in vivo, cynomolgus monkeys
Condition Description: male, cynomolgus monkey, plasma, po, 4.9 mg/kg; read-out: AUCtot
Readout Label: AUC (µM·h)
Numbers only, in µM·h.

Fill in AUC for record COc1cnc(-n2cnc(C)n2)c2[nH]cc(C(=O)C(=O)N3CCN(C(=O)c4ccccc4)CC3)c12 [IVc] 24

====

Test Summary: Single-dose toxicokinetic and tolerability study of prodrugs in dogs
Type: in vivo, dog
Condition Description: female, dog, plasma, po, 24 mg/kg, IVa in female dogs, Iab 24 mg/kg (19 IVa equiv.), Dry-filled capsule; Dogs #4201, #4202
Readout Label: Cmax (µM)
One number for each entry, in µM.

Fill in Cmax for record COc1ncc(OC)c2c(C(=O)C(=O)N3CCN(C(=O)c4ccccc4)CC3)c[nH]c12 79.7
